Target desc: AzoTag1
Measurement protocol: isothermal titration calorimetry
Test settings: 20 mM HEPES-NaOH, 150 mM NaCl, pH 7.5, 25 °C, 0.5% DMSO; one-site model
pKd: −log10 of the molar value.

{"Compound": "CCNC(=O)c1cc(F)c(/N=N\\c2c(F)cc(C(=O)NCCOCCOCC(=O)NC)cc2F)c(F)c1 [compound 1, cis-Et-FAzo]", "pKd": 6.09}

----------
Target desc: AzoTag16
Measurement protocol: isothermal titration calorimetry
Test settings: 20 mM HEPES-NaOH, 150 mM NaCl, pH 7.5, 25 °C, 0.8% DMSO; one-site model

{"Compound": "CNC(=O)COCCOCCNC(=O)c1cc(F)c(/N=N\\c2c(F)cc(C(=O)NCCC(=O)O)cc2F)c(F)c1 [compound 2, cis-Ca-FAzo]", "Endpoint unit": "nM", "Kd": 14}
